# SYSTEM TESTED: unphosphorylated-BTK kinase domain (UP-BTK), GST-tagged human BTK (389-659aa) (Homo sapiens (Human), UniProt Q06187)
# Sequence (Q06187 389-659): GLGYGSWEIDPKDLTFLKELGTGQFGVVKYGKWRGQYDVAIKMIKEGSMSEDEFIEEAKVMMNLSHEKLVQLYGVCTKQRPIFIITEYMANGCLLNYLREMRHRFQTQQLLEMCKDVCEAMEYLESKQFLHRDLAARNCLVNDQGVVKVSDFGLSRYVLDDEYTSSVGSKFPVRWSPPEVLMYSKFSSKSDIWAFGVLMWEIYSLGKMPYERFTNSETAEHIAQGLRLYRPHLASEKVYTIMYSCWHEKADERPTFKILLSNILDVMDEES
# METHOD NOTES: BTK Kinase Lanthascreen Binding Assay
# TEST SETTINGS: Lanthascreen binding, 60 minutes incubation; pIC50 = negative log of the IC50 in molar
READOUT KIND: BTK_I_binding pIC50

{"columns": ["COMPOUND", "VALUE"],
 "data": [
  ["C=CC(=O)N[C@H]1CCC[C@H]1NC(=O)c1sc2nccc3c2c1NC(=O)N3c1ccc(OC2CCOCC2)cc1C (single isomer, unassigned) [Example 347]", 6.06],
  ["C=CC(=O)N[C@H]1CCCC[C@H]1NC(=O)c1sc2nccc3c2c1NC(=O)N3c1ccc(Oc2ccccn2)cc1", 6.84],
  ["C=CC(=O)N[C@@H]1CCCC[C@H]1NC(=O)c1sc2nccc3c2c1NC(=O)N3c1ccc(Oc2ccccc2)cc1C (single isomer, unassigned)", 7.53],
  ["C=CC(=O)N[C@H]1CCC[C@H]1NC(=O)c1sc2nccc3c2c1NC(=O)N3c1cnc(Oc2ccccc2)nc1", 8.04],
  ["C=CC(=O)N[C@H]1CCC[C@H]1NC(=O)c1sc2nccc3c2c1NC(=O)N3c1ccc(Oc2ccccn2)cc1", 8.38],
  ["Cc1cc(Oc2ccccc2)ccc1N1C(=O)Nc2c(C(=O)NC3CCCCC3)sc3nccc1c23", 6.33],
  ["Cc1cc(Oc2ccccc2)ccc1N1C(=O)Nc2c(C(=O)N[C@H]3CCCC[C@H]3NC(=O)CN(C)C)sc3nccc1c23 (single isomer, unassigned)", 6.51],
  ["Cc1cc(Oc2ccccc2)ccc1N1C(=O)Nc2c(C(=O)N3CC[C@H](NC(=O)/C(C#N)=C/C4CC4)C3)sc3nccc1c23", 6.15],
  ["CC(=O)N[C@@H]1CC[C@@H](NC(=O)c2sc3nccc4c3c2NC(=O)N4c2cnc(Oc3ccccc3)cc2C)C1 (single isomer, unassigned)", 7.34],
  ["C=CC(=O)N[C@H]1CC[C@@H](NC(=O)c2sc3nccc4c3c2NC(=O)N4c2cnc(OC3CCCC3)cc2C)C1 (single isomer, unassigned)", 8.07],
  ["Cc1nc(Oc2ccccc2)ccc1N1C(=O)Nc2c(C(=O)N[C@@H]3CCC[C@@H]3N)sc3nccc1c23 (single isomer, unassigned)", 6.46],
  ["Cc1cc(OC(C)C)ncc1N1C(=O)Nc2c(C(=O)N[C@@H]3CCC[C@@H]3N)sc3nccc1c23 (single isomer, unassigned)", 6.67]
]}
